# credit: the supplement of paper PMC10567573

B1: C22orf31 (parent)
chain: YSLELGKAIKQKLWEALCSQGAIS

# Variants of: B1
# test summary: protein stability index of a GFP-peptide fusion (GPS, HEK-293T) (PSI 1-6); higher = more stable;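 further: lentivirally expressed fusions sorted by FACS into six bins by GFP to DsRed ratio, PSI derived from sequencing read proportions per bin multiplied by bin number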
# experimental context: c terminus: a fixed tail appended
measured quantity: protein stability index
Could you keep your reply to the number by itself?

Take a look at these entries with their results.
[
  {
    "variant notation": "S2A",
    "protein stability index": 1.79
  },
  {
    "variant notation": "Q20F",
    "protein stability index": 1.95
  },
  {
    "variant notation": "A22R",
    "protein stability index": 3.87
  }
]

[ask] For K12W , write its protein stability index.
[reply] 2.25

[ask] For L3I , write its protein stability index.
[reply] 1.79

[ask] For L17F , write its protein stability index.
[reply] 2.17

[ask] For L13Y , write its protein stability index.
[reply] 1.56

[ask] For L5H , write its protein stability index.
[reply] 2.19

[ask] For I9N , write its protein stability index.
[reply] 2.07

[ask] For S2C , write its protein stability index.
[reply] 2.15

[ask] For I23H , write its protein stability index.
[reply] 1.63

[ask] For K7Q , write its protein stability index.
[reply] 2
